Provide the recorded pIC50 for the entries that follow.
- assayedTarget: CD73 (Homo sapiens (Human), UniProt P21589)
- Sequence (P21589 27-574): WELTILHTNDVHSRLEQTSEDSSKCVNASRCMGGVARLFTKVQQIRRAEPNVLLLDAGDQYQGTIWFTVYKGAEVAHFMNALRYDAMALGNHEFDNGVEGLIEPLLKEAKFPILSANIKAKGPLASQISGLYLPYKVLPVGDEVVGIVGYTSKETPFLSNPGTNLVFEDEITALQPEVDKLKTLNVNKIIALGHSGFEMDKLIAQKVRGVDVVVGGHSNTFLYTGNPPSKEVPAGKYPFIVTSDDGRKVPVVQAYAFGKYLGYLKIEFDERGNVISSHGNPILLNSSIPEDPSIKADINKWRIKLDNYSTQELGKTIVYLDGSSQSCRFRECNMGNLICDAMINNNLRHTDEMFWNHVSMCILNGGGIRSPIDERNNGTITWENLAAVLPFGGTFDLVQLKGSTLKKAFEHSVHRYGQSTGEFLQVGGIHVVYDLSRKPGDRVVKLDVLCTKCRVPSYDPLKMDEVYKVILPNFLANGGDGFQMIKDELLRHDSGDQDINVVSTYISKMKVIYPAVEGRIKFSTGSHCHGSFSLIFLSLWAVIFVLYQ
- Assay type: biochemical
- runParameters: 1 mM NaH2PO4 in enzyme buffer, CD73 0.3 nM, AMP 15 uM
The value called pIC50 is obtained by taking minus log10 of the concentration in mol/L.

Requested read-out: pIC50. Entry: `CC1(C)CN(c2cc(-c3c[nH]c(=O)[nH]c3=O)nn3ccnc23)CC1(F)F`
8.74

Form field: reported pIC50 of `O=c1[nH]cc(-c2cc([C@H]3C[C@@H]3c3ccc4cnn(CC(F)(F)F)c4c3)c3ncc(Cl)n3n2)c(=O)[nH]1`
9.64

May I ask what pIC50 has been recorded for `O=c1[nH]cc(-c2cc(N3CC[C@H](C(F)F)C3)c3nccn3n2)c(=O)[nH]1` ?
7.24

Which pIC50 is listed for `O=c1[nH]cc(-c2cc(NCC(F)F)c3nccn3n2)c(=O)[nH]1` ?
6.81

// lookup pIC50 for O=c1[nH]cc(-c2cc([C@H]3C[C@@H]3c3ccc4nc(C(F)(F)F)n(CC(F)(F)F)c4c3)c3nccn3n2)c(=O)[nH]1 (racemic) [Example 603]
8.71

Please look up its pIC50: O=c1[nH]cc(-c2cc([C@H]3C[C@@H]3c3ccc(Cl)cc3)c3ncc(F)n3n2)c(=O)[nH]1 (racemic)
8.91
